- Measurement protocol: Plasma concentration in CD-1 mouse at 10 mg/kg, ip after 7 hrs administered as single dose by LC-MS/MS analysis
- Format: ADME, organism-based
Metric name: concentration at 7 h (nM)
Response body: numeric value in nM, unit text excluded.

Ask | Could you share which concentration at 7 h value was measured for Cn1c(CNc2cccc(C(=O)NCc3ccccc3C(F)(F)F)c2)nnc1-c1ccncc1 ?
Reply | 6

Ask | Try O=C(NCc1ccn[nH]1)c1cc([C@@H]2CCNC[C@H]2COc2ccc3c(c2)OCO3)ccc1F next.
Reply | 43

###

pIC50: −log10 of the molar value.
Values of pIC50 reported for Rhodopsin kinase GRK1 (Bos taurus) appear below.

Ask | Provide the documented pIC50 with Rhodopsin kinase GRK1 (Bos taurus) as the system for O=C(NCCc1ccccn1)c1cc([C@@H]2CCNC[C@H]2COc2ccc3c(c2)OCO3)ccc1F
Reply | < 4.00

Ask | Try O=C(NCc1ccccc1)c1cc([C@@H]2CCNC[C@H]2COc2ccc3c(c2)OCO3)ccc1F next.
Reply | < 4.00

Ask | Try O=C(Cc1cc([C@@H]2CCNC[C@H]2COc2ccc3c(c2)OCO3)ccc1F)NCc1ccccn1 next.
Reply | 4.22

Ask | Try O=C(NCCc1cn[nH]c1)c1cc([C@@H]2CCNC[C@H]2COc2ccc3c(c2)OCO3)ccc1F next.
Reply | < 4.00

Ask | Try Cc1cc(CNC(=O)c2cc([C@@H]3CCNC[C@H]3COc3ccc4c(c3)OCO4)ccc2F)n[nH]1 next.
Reply | 4.06

Ask | Try O=C(NCc1c(Cl)cccc1Cl)c1cc([C@@H]2CCNC[C@H]2COc2ccc3c(c2)OCO3)ccc1F next.
Reply | 4.59

Ask | Try O=C(NCCc1cc[nH]n1)c1cc([C@@H]2CCNC[C@H]2COc2ccc3c(c2)OCO3)ccc1F next.
Reply | < 4.00

Ask | Try O=C(NCCc1ccncc1)c1cc([C@@H]2CCNC[C@H]2COc2ccc3c(c2)OCO3)ccc1F next.
Reply | < 4.00
